Parameter: IC50. Scope: all listed entries.
# System: A-375
# assayProcedure: Cytotoxicity against human A375 cells after 48 hrs by SRB assay
# Assay type: functional, cell-based
# cond: A-375, 48 h
resultType: IC50

[
  {
    "compound": "C[C@H]1O[C@@H](O[C@H]2CC[C@@]3(C)[C@@H](CC[C@]4(C)[C@@H]3C=C[C@]35OC[C@@]6(CCC(C)(C)C[C@H]63)[C@@H](O)C[C@]54C)[C@]2(C)CO)[C@H](O)[C@@H](O[C@@H]2O[C@H](CO)[C@@H](O)[C@H](O)[C@H]2O)[C@H]1O",
    "targetOrTestSystem": "A-375",
    "result": "23.9 µM"
  },
  {
    "compound": "CC[C@]1(O)C[C@@H]2CN(CCc3c([nH]c4ccccc34)[C@@](C(=O)OC)(c3cc4c(cc3OC)N(C)[C@H]3[C@@](O)(C(=O)OC)[C@H](OC(C)=O)[C@]5(CC)C=CCN6CC[C@]43[C@@H]65)C2)C1.O=S(=O)(O)O [VINBLASTINE SULFATE]",
    "targetOrTestSystem": "A-375",
    "result": "7.2 µM"
  },
  {
    "compound": "C[C@H]1O[C@@H](O[C@H]2CC[C@@]3(C)[C@@H](CC[C@]4(C)[C@@H]3C=C[C@]35OC[C@@]6(CCC(C)(C)C[C@H]63)[C@@H](O)C[C@]54C)[C@]2(C)CO)[C@H](O)[C@@H](O[C@@H]2O[C@H](CO)[C@@H](O)[C@H](O[C@@H]3O[C@H](CO)[C@@H](O)[C@H](O)[C@H]3O[C@@H]3O[C@H](CO)[C@@H](O)[C@H](O)[C@H]3O)[C@H]2O)[C@H]1O",
    "targetOrTestSystem": "A-375",
    "result": "12.4 µM"
  },
  {
    "compound": "C[C@H]1O[C@@H](O[C@H]2CC[C@@]3(C)[C@@H](CC[C@]4(C)[C@@H]3C=C[C@]35OC[C@@]6(CCC(C)(C)C[C@H]63)[C@@H](O)C[C@]54C)[C@]2(C)CO)[C@H](O[C@@H]2O[C@H](CO)[C@@H](O)[C@H](O)[C@H]2O)[C@@H](O[C@@H]2O[C@H](CO)[C@@H](O)[C@H](O)[C@H]2O)[C@H]1O",
    "targetOrTestSystem": "A-375",
    "result": "14.6 µM"
  }
]
